Target: Cytochrome P450 1B1 (Homo sapiens)
Sequence (Q16678 whole entry): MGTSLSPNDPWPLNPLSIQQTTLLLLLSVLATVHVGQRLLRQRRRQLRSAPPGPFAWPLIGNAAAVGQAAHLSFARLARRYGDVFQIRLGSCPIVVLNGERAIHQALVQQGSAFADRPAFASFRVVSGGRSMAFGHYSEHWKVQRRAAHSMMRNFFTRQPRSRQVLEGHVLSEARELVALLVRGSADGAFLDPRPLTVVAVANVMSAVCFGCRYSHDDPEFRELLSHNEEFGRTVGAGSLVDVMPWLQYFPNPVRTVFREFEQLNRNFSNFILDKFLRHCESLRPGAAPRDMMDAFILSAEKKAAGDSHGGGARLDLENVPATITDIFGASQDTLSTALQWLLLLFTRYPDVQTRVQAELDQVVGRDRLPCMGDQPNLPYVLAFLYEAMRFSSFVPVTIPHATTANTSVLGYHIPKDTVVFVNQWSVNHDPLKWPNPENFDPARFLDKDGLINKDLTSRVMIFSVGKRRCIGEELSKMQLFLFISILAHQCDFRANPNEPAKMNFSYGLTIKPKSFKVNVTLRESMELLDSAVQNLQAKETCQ
Experiment: Inhibition of human CYP1B1 expressed in supersomes using ethoxyresorufin as substrate after 20 mins in presence of NADP by Dixon plot analysis
measured-endpoint: Ki (µM)
One number for each entry, in µM.

INPUT: Return Ki (reported value) for this molecule: C[C@]12CC[C@H]3[C@@H](CCC4=CC(=O)CC[C@@]43C)[C@@H]1CC[C@@H]2O
OUTPUT: 412

* * *

biological target: Cytochrome P450 1B1 (Homo sapiens); assay: Inhibition of CYP1B1 (unknown origin) expressed in Escherichia coli DH5alpha coexpressing human NADPH-P450 reductase using 7-Ethoxyresorufin as substrate up to 6 mins in presence of NADP+ by spectrofluorometric analysis
measured-endpoint: IC50 (nM)
Numbers only, in nM.

INPUT: Please report IC50 for the following molecule: N#C[Se]Cc1cccc(C[Se]C#N)c1
OUTPUT: 130
